Ref: the supplement of paper PMC10567573

B1: RHOBTB2 (parent)
chain: LYTGELDENERDLMHIAHIAELLE

- Variants of: B1
- run.description: protein stability index of a GFP-peptide fusion (GPS, HEK-293T) (PSI 1-6); higher = more stable;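 note: lentivirally expressed fusions sorted by FACS into six bins by GFP to DsRed ratio, PSI derived from sequencing read proportions per bin multiplied by bin number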
- experimental.context: c terminus: a fixed tail appended
measurement.name: protein stability index
# respond with the number and nothing more

Query: Using known records, supply protein stability index for "H15K"
Reply: 2.21

Query: Tell us which protein stability index value is on record for "E8N"
Reply: 2.21

Query: Quickly give me recorded protein stability index for "L1E"
Reply: 2.72

Query: Give protein stability index for "L1V"
Reply: 2.8

Query: Please supply the value of reported protein stability index for the item "E5M"
Reply: 2.1

Query: Fill in protein stability index for record "A20N"
Reply: 3.74

Query: State, in one line, measured protein stability index of "A20I"
Reply: 2.14

Query: Look up protein stability index of "E10L" and report it.
Reply: 2.24

Query: Return protein stability index (reported value) for this variant: "A17Y"
Reply: 1.93

Query: Determine its reported protein stability index: "L22H"
Reply: 3.76

Query: Please indicate protein stability index recorded for "L6D"
Reply: 3.27

Query: Using the record for "E24H" , state its measured protein stability index.
Reply: 2.21

Query: Return protein stability index for the following variant: "L13K"
Reply: 3.1

Query: Specify measured protein stability index for "A17P" .
Reply: 3.85

Query: Determine from records and report protein stability index for "I19T"
Reply: 3.79

Query: Input "G4L" , output reported protein stability index.
Reply: 1.76

Query: Name the recorded protein stability index of the item "H15G" in your answer.
Reply: 2.78

Query: Query protein stability index for "L1G"
Reply: 2.53

Query: Please give the documented protein stability index of "H18C"
Reply: 2.41

Query: Look up and report measured protein stability index for this entry: "L1N"
Reply: 2.8

Query: Assign protein stability index to the following record: "L22F"
Reply: 3.41

Query: Hello, please tell me recorded protein stability index for this one: "M14A"
Reply: 2.39

Query: Quickly give me recorded protein stability index for "E24S"
Reply: 2.22

Query: Tell me its protein stability index given "E8V" as the entry.
Reply: 2.9

Query: Give me measured protein stability index, please, for this variant: "H15I"
Reply: 1.93

Query: Read off the recorded protein stability index for "L1H"
Reply: 2.61
